# target.entity: 11β-HSD1 (Homo sapiens, UniProt P28845)
# Sequence (P28845 whole entry): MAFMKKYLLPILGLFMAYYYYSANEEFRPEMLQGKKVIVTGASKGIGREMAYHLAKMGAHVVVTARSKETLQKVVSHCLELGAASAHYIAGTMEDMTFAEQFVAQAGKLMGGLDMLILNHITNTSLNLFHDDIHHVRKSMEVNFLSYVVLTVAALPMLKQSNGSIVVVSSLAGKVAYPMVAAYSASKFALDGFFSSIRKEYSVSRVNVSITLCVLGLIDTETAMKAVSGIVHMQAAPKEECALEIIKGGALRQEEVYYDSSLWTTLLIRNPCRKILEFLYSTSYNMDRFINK
# condition.info: 0.1 µM
parameter.measured: Average % inhibition at 100 nM (%)
Express your answer in %, writing the number without its unit.

{"compound": "C[C@@H](c1ccc(-c2ccc(F)cc2)cc1)N1CC[C@](CC(O)CNS(C)(=O)=O)(c2ccc(F)cc2)OC1=O (single isomer, unassigned) [EXAMPLE 277 Isomer 2]", "unit.descriptor": "%", "Average % inhibition at 100 nM": 65.6}
{"compound": "C=CCCC1(c2ccc(F)cc2)CCN([C@@H](C)c2ccc(OC(F)F)cc2)C(=O)O1 (single isomer, unassigned) [EXAMPLE 323 Isomer 2]", "unit.descriptor": "%", "Average % inhibition at 100 nM": 100.9}
{"compound": "CC(C)C1(CCCO)CCN([C@@H](C)c2ccc(Cl)cc2)C(=O)O1 (single isomer, unassigned) [EXAMPLE 187 Isomer 1]", "unit.descriptor": "%", "Average % inhibition at 100 nM": 98.7}
{"compound": "C[C@@H](c1ccc(-c2ccc(F)cc2)cc1)N1CC[C@](CC(O)CNS(C)(=O)=O)(c2ccc(F)cc2)OC1=O (single isomer, unassigned) [EXAMPLE 277 Isomer 1]", "unit.descriptor": "%", "Average % inhibition at 100 nM": 91.1}

Now for another entry.
Need Average % inhibition at 100 nM, item CC(C)C1(CCCO)CCN([C@@H](C)c2ccc(Cl)cc2)C(=O)O1 (single isomer, unassigned) [EXAMPLE 187 Isomer 2]
46.4
